system: Dd2 parasites; experiment: Artemisinin IC50 with proteasome inhibitor co-treatment, 72 h SYBR green assay; format: cell-based; conditions: Plasmodium falciparum, DD2, Art + 0.5 nM CarB, n = 2
Test Readout: pIC50
Please express pIC50 as -log10 of the molar concentration.

So what's the measured pIC50 for this one? C[C@@H]1CC[C@H]2[C@@H](C)C(=O)O[C@@H]3O[C@@]4(C)CC[C@@H]1[C@]32OO4
7.87

###

tested on: Dd2 parasites; test: Artemisinin IC50 with proteasome inhibitor co-treatment, 72 h SYBR green assay; format: cell-based; conditions: Plasmodium falciparum, DD2, Art + 1.0 nM CarB, n = 2
Test Readout: pIC50
Please express pIC50 as -log10 of the molar concentration.

So what's the measured pIC50 for this one? C[C@@H]1CC[C@H]2[C@@H](C)C(=O)O[C@@H]3O[C@@]4(C)CC[C@@H]1[C@]32OO4 [artemisinin]
8.15

###

System: Dd2 parasites
Test: Artemisinin IC50 with proteasome inhibitor co-treatment, 72 h SYBR green assay
Type: cell-based
Conditions: Plasmodium falciparum, DD2, Art only, Figure 3C, mean ± SEM, n = 2
Description: Compound susceptibility was measured using the malaria SYBR green I-based fluorescence assay.[39] Asynchronous P. falciparum parasites (Dd2 strain) were cultured in standard conditions before being plated for the assays. […] IC50 values were obtained using normalized fluorescence intensity from SYBR green I and analyzed via nonlinear variable slope four-parameter regression curve-fitting model in Prism 6 (GraphPad Software Inc.).
Test Readout: pIC50
Please express pIC50 as -log10 of the molar concentration.

Requested read-out pIC50, target or system Dd2 parasites, entry C[C@@H]1CC[C@H]2[C@@H](C)C(=O)O[C@@H]3O[C@@]4(C)CC[C@@H]1[C@]32OO4 [artemisinin]
7.72

###

system: Dd2 parasites; experiment: Artemisinin IC50 with proteasome inhibitor co-treatment, 72 h SYBR green assay; format: cell-based; conditions: Plasmodium falciparum, DD2, Art + 1.0 nM Analog 18, n = 2
Test Readout: pIC50
Please express pIC50 as -log10 of the molar concentration.

So what's the measured pIC50 for this one? C[C@@H]1CC[C@H]2[C@@H](C)C(=O)O[C@@H]3O[C@@]4(C)CC[C@@H]1[C@]32OO4
8.12
